# Assayed Target: human cathepsin F (Homo sapiens, UniProt Q9UBX1)
# Sequence (Q9UBX1 271-484): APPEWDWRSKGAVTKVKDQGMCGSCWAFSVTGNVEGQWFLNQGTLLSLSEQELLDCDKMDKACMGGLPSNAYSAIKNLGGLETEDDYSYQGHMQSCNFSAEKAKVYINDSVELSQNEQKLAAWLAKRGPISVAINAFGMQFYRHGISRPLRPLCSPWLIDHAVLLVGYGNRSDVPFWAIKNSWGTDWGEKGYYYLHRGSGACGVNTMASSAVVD
pIC50: −log10 of the molar value.
Lab note: anything with pIC50 at or over 6 counts as Fulfilled; the rest go in Not fulfilled.

Take a look at these entries with their results.
Cc1nc(-c2ccc(C(=O)N3CCOCC3)cc2)c([C@@H]2CCCC[C@H]2C(=O)NC2(C#N)CC2)o1
Not fulfilled
N#CC1(NC(=O)[C@@H]2CC(F)(F)CC[C@H]2c2oc(-c3ccc(F)cc3)nc2-c2ccc(N3CCS(=O)(=O)CC3)cc2)CC1
Fulfilled
N#CC1(NC(=O)[C@@H]2CCCC[C@H]2c2oc(-c3ccccc3OC(F)F)nc2-c2ccc(N3CCS(=O)(=O)CC3)cc2)CC1
Fulfilled

Would you say CCC(C#N)NC(=O)[C@@H]1CCCC[C@H]1c1oc(-c2ccc(F)cc2)nc1-c1ccc(N2CCS(=O)(=O)CC2)cc1 (single isomer, unassigned) shows pIC50 at minimum 6?
Not fulfilled

And for "Cc1nc(-c2ccc(N3CCS(=O)(=O)CC3)cc2)c([C@@H]2CCCC[C@H]2C(=O)NC2(C#N)CC2)s1" ?
Not fulfilled

Same question for "N#CC1(NC(=O)[C@@H]2CCCC[C@H]2c2oc(-c3cccnn3)nc2-c2ccc(N3CCS(=O)(=O)CC3)cc2)CC1" please.
Not fulfilled

Try the compound "CS(=O)(=O)C1CN(c2ccc(-c3nc(C(F)(F)F)oc3[C@@H]3CCCC[C@H]3C(=O)NC3(C#N)CC3)cc2)C1"
Fulfilled

CC(C)(O)C(C#N)NC(=O)[C@@H]1CCCC[C@H]1c1oc(-c2ccc(F)cc2)nc1-c1ccc(N2CCS(=O)(=O)CC2)cc1 (single isomer, unassigned) [Example 158] ?
Not fulfilled

Then "N#CC1(NC(=O)[C@@H]2CCCC[C@H]2c2oc(CC3CCCCC3)nc2-c2ccc(N3CCS(=O)(=O)CC3)cc2)CC1" ?
Fulfilled

Do the same for "N#CC1(NC(=O)[C@@H]2CCCC[C@H]2c2oc(-c3cccc(C(F)(F)F)c3)nc2-c2ccc(N3CCS(=O)(=O)CC3)cc2)CC1" please
Fulfilled

Query "CC1(c2nc(-c3ccc(N4CCS(=O)(=O)CC4)cc3)c([C@@H]3CCCC[C@H]3C(=O)NC3(C#N)CC3)o2)CCOCC1" next
Not fulfilled

Query "N#CC1(NC(=O)[C@@H]2CCC(F)(F)C[C@H]2c2oc(C(F)(F)C(F)(F)F)nc2-c2ccc(N3CCS(=O)(=O)CC3)cc2)CC1" next
Not fulfilled

N#CC(NC(=O)[C@@H]1CC(F)(F)CC[C@H]1c1oc(C(F)(F)C(F)(F)F)nc1-c1ccc(C(=O)N2CCOCC2)cc1)C1CCOCC1 (single isomer, unassigned) [Example 144] ?
Not fulfilled

And for "N#CC1(NC(=O)[C@@H]2CCCC[C@H]2c2oc(C(F)(F)C(F)(F)F)nc2-c2ccc(C(=O)N3CCOCC3)cc2)CC1" ?
Not fulfilled

Try this compound too: "N#CC1(NC(=O)[C@@H]2CCCC[C@H]2c2oc(-c3ccc(F)cc3)nc2-c2ccc(N3CCS(=O)(=O)CC3)c(Br)c2)CC1"
Fulfilled

Now consider "N#CC1(NC(=O)[C@@H]2CCCC[C@H]2c2oc(-c3ccc(F)cn3)nc2-c2ccc(N3CCS(=O)(=O)CC3)cc2)CC1" and answer again.
Not fulfilled

Continue with "COc1cccc(-c2nc(-c3ccc(N4CCS(=O)(=O)CC4)cc3)c([C@@H]3CCCC[C@H]3C(=O)NC3(C#N)CC3)o2)c1"
Fulfilled

Further, for "N#CC1(NC(=O)[C@@H]2CCCC[C@H]2c2oc(-c3ccc(F)cc3)nc2-c2ccc(N3CC[S+]([O-])CC3)cc2)CC1" ?
Fulfilled
